# ASSAY_DETAILS: Dissociation constant was evaluated which is similar to Ki (inhibitory constant)
QUANTITY: Kd (nM)

[[record]]
smiles_string = "CC(C)(N)C(=O)N[C@H](COCc1ccccc1)C(=O)N1CCC2(CC1)CN(S(C)(=O)=O)c1ccccc12"
scale_unit = "nM"
reading = 0.161

